Reference source for all entries: a protein production outcome set (Wang et al. 2014)

# Experiment Notes: label from the status in PepcDB records
Measurement Label: protein production

As a guide, the following entries are already answered.
MKQTPPLISFITICYNGLDDTCMLIESLRDTISSVSYEIIVVDNASRQDEASLIQERYPFVRTLRSEKNLGFSGGNNLGIQIAQGKYLFLINNDTYLTEDGLPALIERLESDPRIGAVSPKIRFAFPPQSIQFAGYTKLSRYTMRNKALGMGCPDDGTFDTPRPSAYLHGAALMLKREVIWKAGLMPEIYFLYYEELDWCTSMTRAGYQLWYEPRCTIFHKESQSTGRQSPLRTFYMMRNRMLYAWRNLPGMERCLAIAYQMLIVAPKDSLCFVLKGEPKLAKAVWHGVKGFWKLCLEHHHHHH : not failed
MHPNIATLLSANLGESRTRHLLSLVSVPDGLPSDAEGRATRAEIAQALNMVLFAGILDRVPTGRAYTDDVAATGGKVVFDHGALRTVKWRDNGALPEGEAAFTRILRPLGYRLNGNYPLDRISMTGRSYAHADAPEGIAQFFVSEFHPERFSDAFREAVGRVTGNSADPLTPRAQTLLWQLDRDGVLTVADGAELIGLLVPCFERQHGVPRLADYETLLRESAEMAWIATEGNAFNHATDRVDDVFGLSEQQKALGRPMKDKVEVSGSGRVKQTAFRADTVRRQFIGAQGETVERDVPGSFYEFITRDRFADAPAASPRVDLGFDAGNAQGIFKMTAAV : not failed
MTHNHHHQAVDNLLNVFSRASHDLTVVHSKLDKEFQQMYPANANPMKLIQRIKKLQEDVTLLKHQCLDLLSAKQDLIDKAQTTLVGNCNLIQKMNASLGESTNGDTDDALADFNQIIDEWTMQVRSRTVGETEDADKEDINKMLFSAICHTN : failed
MSTPDGDEKEQCFHRAIAKTSIYLDREPGNPELTVWLAINKASLAGAQGGFGALSLAKEAKSLLEGVIATSPQTLDGSAYTSLGSLYYKVPGWPIGFGDDDKAEEMLKKALEINPKGIDPNYFYGDFLAEEGRDKEAKVYLTRAMQASPRPLEHHHHHH : failed
MNHVAVIGGGIIGASWAVVFARRGLEVTIVERDAACLAGLPARLAGMIERSASLLGAGEQPGDVAARIGATDALAAAVGRADYVQEAVSENLALKRTLFAELDALAPAHALLASSTSTYGASQFTEALAGRARCLVAHPMTPPHLSPVVEMAASAWTDPQVLAGAEAFMRSLGQHPVRIRKEIPGFVLNRLQGALLMEMFRVIADDVISPADADALISQGLGLRWATLGPLEGVDLNAPGGIADYLQRYGHIFNDMAVGQGLPAPVDAELISALDGAMRAALPLERLEAKRGWRDRAIAGVRVALHDYTGEKPLEHHHHHH : failed

What value of protein production has been recorded for this entry: MSITERFFYLEKEPCVIYLPEKPNGFSVMLLGDYNYFIENGTSLWTQHTGRSYFLHGLIEEGYTVFSSNLYGRHWGNDQSVRLAKRLYDVVLRKETLNAKMHIMADGMGALVALEMMNKYPECIRSVIMLNPCLDLPEYVEFEKEHKFFYKRLLKELSLAYDAKEEELEA
failed

Which protein production value is on record for MVGINTDTENISELLKTYWSIQRISAGYADQNAASLGLTIQQLAMINVIYSTPGISVADLTKRLIITGSSAAANVDGLISLGLVVKLNKTIPNDSMDLTLKLSKKGEDLSKRSTANAFMYKAMMKVFENLTENEIEELIRLNKKVETLLKKSK ?
not failed
